This collection of values is drawn from patent US10196363B2.

# ASSAYED_TARGET: mouse RORγ (Mus musculus, UniProt P51450)
# Construct: mouse RORγ, from Ile251 to Lys516; expressed in transfected cells; host or cells: CHO cells (Chinese hamster ovary), transient co-transfection with pG5-Luc
# Sequence (P51450 251-516): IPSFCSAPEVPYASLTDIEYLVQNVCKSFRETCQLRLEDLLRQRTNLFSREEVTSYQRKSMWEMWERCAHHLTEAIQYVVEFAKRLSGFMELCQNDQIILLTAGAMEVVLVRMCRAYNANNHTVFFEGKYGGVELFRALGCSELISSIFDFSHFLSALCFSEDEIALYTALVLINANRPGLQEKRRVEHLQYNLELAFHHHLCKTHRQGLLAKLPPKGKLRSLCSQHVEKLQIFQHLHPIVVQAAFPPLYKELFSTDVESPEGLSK
# TEST_DETAILS: In vitro assay of inhibitory effect against RORγ transcriptional activity (GAL4-mRORγ LBD luciferase reporter gene assay in CHO cells)
# Assay type: cell-based
# RUN_CONDITIONS: GAL4-mRORγ LBD luciferase reporter, CHO cells; read-out: LUC EC50 mRORγ
QUANTITY_NAME: pEC50
Give bare numbers, as −log10 of the molar value.

Recorded pEC50, per entry:
>>> measurement("CC(C)C1=CN(C2CN(S(C)(=O)=O)CC2C(=O)O)C(=O)N[C@@]1(C)c1ccc(CCC(C)(C)C)c(Cl)c1 (single isomer, unassigned)")
6.83
>>> measurement("CC(C)(C)CCc1ccc([C@]2(C)NC(=O)N(CCC(=O)O)C=C2c2ccccc2)cc1Cl")
7.15

Okay, here is my list. What is pEC50 for each of these?
1. CC(C)C1=CN(CCC(=O)O)C(=O)N[C@@]1(C)c1ccc(CC2CCCC2)c(Cl)c1
2. CC(C)C1=CN(CCC(=O)O)C(=O)N[C@@]1(C)c1ccc(CC2CCC(C)(C)CC2)c(Cl)c1

Response:
1. 7.74
2. 7.42

----------
# ASSAYED_TARGET: mouse RORγ (Mus musculus, UniProt P51450)
# Construct: mouse RORγ, from Ile251 to Lys516; expressed in transfected cells; host or cells: CHO cells (Chinese hamster ovary), transient co-transfection with pG5-Luc
# TEST_DETAILS: In vitro assay of inhibitory effect against RORγ transcriptional activity (GAL4-mRORγ LBD luciferase reporter gene assay in CHO cells)
# Type: cell-based
# RUN_CONDITIONS: GAL4-mRORγ LBD luciferase reporter, CHO cells; read-out: LUC EC50 mRORγ
QUANTITY_NAME: EC50 (nM)
One number for each entry, in nM.

Recorded EC50, per entry:
>>> measurement("CC(C)C1=CN(C2CCCC2C(=O)O)C(=O)N[C@@]1(C)c1ccc(CCC(C)(C)C)c(Cl)c1 (single isomer, unassigned) [Example 243]")
543
>>> measurement("CC(C)C1=CN(CCC(=O)O)C(=O)N[C@@]1(C)c1ccc(CC(O)C(C)(C)C)c(Cl)c1 (single isomer, unassigned) [Example 311]")
94
>>> measurement("CC(C)C1=CN(C2CCCC(C(=O)O)C2)C(=O)N[C@@]1(C)c1ccc(CCC(C)(C)C)c(Cl)c1 (single isomer, unassigned) [Example 257]")
115
>>> measurement("CC(C)C1=CN(C2CCCC2C(=O)O)C(=O)N[C@@]1(C)c1ccc(CCC(C)(C)C)c(Cl)c1 (single isomer, unassigned) [Example 242]")
58

Okay, here is my list. What is EC50 for each of these?
1. COCCC1=CN(c2ccc(C(=O)O)cc2)C(=O)N[C@@]1(C)c1ccc(CCC(C)(C)C)c(Cl)c1 [Example 210]
2. CC(C)C1=CN(c2ccc(C(=O)O)cc2)C(=O)N[C@@]1(C)c1ccc(CCC(C)(C)C)c(C(F)(F)F)c1 [Example 271]
3. CC(C)C1=CN(C2CC3(CC(C(=O)O)C3)C2)C(=O)N[C@@]1(C)c1ccc(CCC(C)(C)C)c(Cl)c1 (single isomer, unassigned) [Example 232]
4. CC(C)C1=CN(CCC(=O)O)C(=O)N[C@@]1(C)c1ccc(C2CC(C)(C)C2)c(Cl)c1 [Example 298]
5. COCCC1=CN(c2ccc(C(=O)O)cc2)C(=O)N[C@@]1(C)c1ccc([C@H]2C[C@@H](C(C)C)C2)c(Cl)c1 [Example 318]
6. CC(C)C1=CN(CCC(=O)O)C(=O)N[C@@]1(C)c1ccc([C@H]2C[C@@H](CC(C)(C)C)C2)c(Cl)c1 [Example 309]
7. CC(=O)N1CC(C(=O)O)C(N2C=C(C(C)C)[C@](C)(c3ccc(CCC(C)(C)C)c(Cl)c3)NC2=O)C1 (single isomer, unassigned) [Example 239]
8. COC[C@H]1C[C@H](N2C=C(C(C)(C)CCC(=O)O)[C@](C)(c3ccc(CCC(C)(C)C)c(Cl)c3)NC2=O)C1 [Example 198]

Response:
1: 7; 2: 47; 3: 19; 4: 18; 5: 14; 6: 71; 7: 3060; 8: 26

Okay, here is my list. What is EC50 for each of these?
1. CC(C)C1=CN(C2(CC(=O)O)CC2)C(=O)N[C@@]1(C)c1ccc(CCC(C)(C)C)c(Cl)c1 [Example 228]
2. COC(=O)[C@H]1C[C@H](N2C=C(C(C)(C)CCCO)[C@](C)(c3ccc(CCC(C)(C)C)c(Cl)c3)NC2=O)C1 (single isomer, unassigned) [Example 191]
3. CC(C)C1=CN(c2ccc(C(=O)O)cc2)C(=O)N[C@@]1(C)c1ccc(COC(C)(C)C)c(Cl)c1 [Example 203]
4. CC(C)C1=CN(CCC(=O)O)C(=O)N[C@@]1(C)c1ccc(C2CCC(F)(F)CC2)c(Cl)c1 [Example 328]
5. COCC(C)C1=CN(CCC(=O)O)C(=O)N[C@@]1(C)c1ccc(CCC(C)(C)C)c(Cl)c1 (single isomer, unassigned) [Example 306]
6. COC1CC(C2=CN(c3ccc(C(=O)O)cc3)C(=O)N[C@@]2(C)c2ccc(CCC(C)(C)C)c(Cl)c2)C1 (single isomer, unassigned) [Example 276]
7. CC(C)C1=CN(c2ccc(C(=O)O)cc2)C(=O)N[C@@]1(C)c1ccc(CCC(C)(C)C)c(F)c1 [Example 356]
8. CC(C)C1=CN(C2CCCC(C(=O)O)C2)C(=O)N[C@@]1(C)c1ccc(CCC(C)(C)C)c(Cl)c1 (single isomer, unassigned) [Example 254]

Response:
32
71
21
19
27
47
15
28

----------
# ASSAYED_TARGET: mouse RORγ (Mus musculus, UniProt P51450)
# Construct: mouse RORγ, from Ile251 to Lys516; expressed in transfected cells; host or cells: CHO cells (Chinese hamster ovary), transient co-transfection with pG5-Luc
# Sequence (P51450 251-516): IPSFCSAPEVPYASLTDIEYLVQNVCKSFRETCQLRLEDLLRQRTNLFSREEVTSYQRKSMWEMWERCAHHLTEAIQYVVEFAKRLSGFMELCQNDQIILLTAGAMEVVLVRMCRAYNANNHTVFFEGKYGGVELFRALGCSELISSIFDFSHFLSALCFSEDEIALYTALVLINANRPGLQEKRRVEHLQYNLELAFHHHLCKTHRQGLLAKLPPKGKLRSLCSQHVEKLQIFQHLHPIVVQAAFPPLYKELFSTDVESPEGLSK
# TEST_DETAILS: In vitro assay of inhibitory effect against RORγ transcriptional activity (GAL4-mRORγ LBD luciferase reporter gene assay in CHO cells)
# Assay type: cell-based
# RUN_CONDITIONS: value in parentheses beside the > EC50 bound; vehicle-control 0.2% DMSO alone = 100%
QUANTITY_NAME: mRORγ luciferase activity, %-of-control

>>> measurement("CC(C)C1=CN(C2CCC(C(=O)O)C2)C(=O)N[C@]1(C)c1ccc(CCC(C)(C)C)c(Cl)c1 (single isomer, unassigned)")
"(70%)"
>>> measurement("CC(C)C1=CN(CCC(=O)O)C(=O)N[C@]1(C)c1ccc(C2CCCCC2)c(Cl)c1")
"(84%)"
>>> measurement("CC(C)C1=CN(CCC(=O)O)C(=O)N[C@]1(C)c1ccc(C2=CCCCC2)c(Cl)c1")
"(88%)"
>>> measurement("CC(C)C1=CN(CCC(=O)O)C(=O)N[C@]1(C)c1ccc(CCC(C)(C)C)c(Cl)c1")
"(51%)"

----------
# ASSAYED_TARGET: mouse RORγ (Mus musculus, UniProt P51450)
# Construct: mouse RORγ, from Ile251 to Lys516; expressed in transfected cells; host or cells: CHO cells (Chinese hamster ovary), transient co-transfection with pG5-Luc
# TEST_DETAILS: In vitro assay of inhibitory effect against RORγ transcriptional activity (GAL4-mRORγ LBD luciferase reporter gene assay in CHO cells)
# Format: cell-based
# RUN_CONDITIONS: GAL4-mRORγ LBD luciferase reporter, CHO cells; read-out: LUC EC50 mRORγ
Where a name gives a salt, the structure may show the parent alone.
Assignment: determine reported pEC50 for the given molecules.
Answers are plain numbers, as −log10 of the molar value.

Recorded pEC50, per entry:
>>> measurement("CC(C)C1=CN(C23CCC(C(=O)O)(CC2)C3)C(=O)N[C@@]1(C)c1ccc(CCC(C)(C)C)c(Cl)c1")
7.64
>>> measurement("CC(C)CCOc1c(F)cc([C@]2(C)NC(=O)N(CCC(=O)O)C=C2C(C)C)cc1Cl")
7.92
>>> measurement("C[C@@]1(c2ccc(OCCC3CCC3)c(Cl)c2)NC(=O)N(C23CC(C(=O)O)(C2)C3)C=C1C1CC(F)(F)C1")
7.54
>>> measurement("COCCC1=CN(C23CCC(C(=O)O)(C2)C3)C(=O)N[C@@]1(C)c1ccc([C@H]2C[C@@H](C(C)(C)C)C2)c(Cl)c1 (single isomer, unassigned)")
7.92
>>> measurement("C=C(C)C1=CN(CCC(=O)O)C(=O)N[C@@]1(C)c1ccc(CCC(C)(C)C)c(Cl)c1")
7.14
>>> measurement("COC(=O)[C@H]1C[C@H](N2C=C([C@H]3C[C@@H](CO)C3)[C@](C)(c3ccc(CCC(C)(C)C)c(Cl)c3)NC2=O)C1 (single isomer, unassigned)")
6.27

Okay, here is my list. What is pEC50 for each of these?
1. COCCC1=CN(CCC(=O)O)C(=O)N[C@@]1(C)c1ccc(CC2CCCCC2)c(Cl)c1
2. CC(C)C1=CN(c2ccc(C(=O)O)cn2)C(=O)N[C@@]1(C)c1ccc(CCC(C)(C)C)c(Cl)c1 [Example 281, hydrochloride]
3. CC(C)(C)COc1ccc([C@]2(C)NC(=O)N(c3ccc(C(=O)O)cc3)C=C2C2CC(F)(F)C2)cc1Cl
4. CO[C@H]1C[C@H](N2C=C(C(C)(C)CCC(=O)O)[C@](C)(c3ccc(CCC(C)(C)C)c(Cl)c3)NC2=O)C1
5. CC(C)(C)CCc1ccc([C@]2(C)NC(=O)N(C3CC(F)(F)C3)C=C2[C@H]2C[C@@H](C(=O)O)C2)cc1Cl

Response:
1: 7.96; 2: 7.68; 3: 7.35; 4: 7.64; 5: 7.74

Query: For the molecule CC(C)(C)CCc1ccc([C@]2(C)NC(=O)N(c3ccc(C(=O)O)cn3)C=C2C2CC(F)(F)C2)cc1Cl , give its measured pEC50 value.
Response: 7.57
